From: BindingDB's records for doi:10.1021/ml5001867

- test method notes: Inhibition of BCL-XL (unknown origin) expressed in mcl-1 deficient MEF assessed as induction of cell killing incubated for 48 hrs in presence of 10% FBS by Cell titerGlo reagent based assay
Give pEC50 for every item shown.
Answers are plain numbers, as −log10 of the molar value.

                              smiles_record  property_label  reported_measurement
0  O=C(Nc1nc2ccccc2s1)c1cccc2c1CN(c1nc(C(=O)O)c(CCCOc3ccc(-n4ncc5cncnc54)cc3)s1)CC2           pEC50                  7.22

Query string: Please supply the value of reported pEC50 for the item "CN1CCN(CCCNc2ncnc3c2cnn3-c2ccc(OCCCc3sc(N4CCc5cccc(C(=O)Nc6nc7ccccc7s6)c5C4)nc3C(=O)O)cc2)CC1"
Result string: 7.70
